Target desc: T1, human CD38 (human, UniProt P28907 43-300, limits assumed)
T1 construct: Soluble analyte in SPR; the construct (limits, tags) is not described; also called huCD38
Protocol summary: SPR (Biacore), mAb captured on anti-Fc chip, after thermal stress of the mAb (14 days at 40 C); n = 3
Observable: koff (s⁻¹)
Express your answer in s⁻¹, writing the number without its unit.

Binder	Readout units	Numeric value
mAb 8 (antibody, human IgG1, kappa, V domains shown, Humanized heavy and light chains with engineered Fc; also called anti-CD38 mAb 8; HEAVY CHAIN 6 / LIGHT CHAIN 3) VH: QVQLVQSGAEVAKPGASVKVSCKASGYTFTDYWMQWVKQRPGQGLEWIGTIYPGDGDTGYAQKFQGRVTMTADKSTSTVYMELSSLRSEDTAVYYCARGDYYGSNSLDYWGQGTLVTVSS VL: DIVMTQSPDSLAVSLGERATINCKSSQDVSTVVAWYQQKPGQSPRRLIYSASYRYIGVPDRFSGSGSGTDFTFTISSLQAEDVAVYYCQQHYSPPYTFGGGTKLEIKR	s⁻¹	0.000663
mAb 6 (antibody, human IgG1, kappa, V domains shown, Humanized heavy and light chains with engineered Fc; also called anti-CD38 mAb 6; HEAVY CHAIN 5 / LIGHT CHAIN 3) VH: QVQLVQSGAEVAKPGASVKVSCKASGYTFTDYWMQWVRQAPGQGLEWIGTIYPGDGDTSYAQKFQGRVTMTADTSTSTVYMELSSLRSEDTAVYYCARGDYYGSNSLDYWGQGTLVTVSS VL: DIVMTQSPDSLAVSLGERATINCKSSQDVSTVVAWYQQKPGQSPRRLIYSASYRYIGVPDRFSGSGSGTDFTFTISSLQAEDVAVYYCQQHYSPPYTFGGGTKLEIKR	s⁻¹	0.00128
mAb 5 (antibody, human IgG1, kappa, V domains shown, Humanized heavy and light chains with engineered Fc; also called anti-CD38 mAb 5; HEAVY CHAIN 5 / LIGHT CHAIN 2) VH: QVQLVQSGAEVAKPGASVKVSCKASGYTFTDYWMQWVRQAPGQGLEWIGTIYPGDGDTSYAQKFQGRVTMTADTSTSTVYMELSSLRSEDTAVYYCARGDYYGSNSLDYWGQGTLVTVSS VL: DIVMTQSPDSLAVSLGERATINCKSSQDVSTVLAWYQQKPGQSPRRLIYSASYRYIGVPDRFSGSGSGTDFTLTISSLQAEDVAVYYCQQHYSPPYTFGGGTKLEIKR	s⁻¹	0.00236

Now for a further binder.
Request: Request the reported koff associated with mAb 7 (antibody, human IgG1, kappa, V domains shown, Humanized heavy and light chains with engineered Fc; also called anti-CD38 mAb 7; HEAVY CHAIN 6 / LIGHT CHAIN 2) VH: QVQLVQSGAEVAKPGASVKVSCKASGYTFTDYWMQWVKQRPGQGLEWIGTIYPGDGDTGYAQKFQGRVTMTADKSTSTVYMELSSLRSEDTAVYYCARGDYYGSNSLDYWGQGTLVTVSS VL: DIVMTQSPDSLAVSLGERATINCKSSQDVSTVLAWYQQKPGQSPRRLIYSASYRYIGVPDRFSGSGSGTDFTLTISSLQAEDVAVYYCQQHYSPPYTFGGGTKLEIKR
Response: 0.00133

Data credit: patent US20200399391A1
